tested on: IGROV1 ovarian; assay: NCI tumour cell line growth inhibition, 48 h
Measured TGI, listed per entry for reference.
// return numeric value only (unit: µM, not printed)

CCOC(=O)CCC(C(=O)OCC)n1nnc2ccc(Nc3c(C)[n+]([O-])c4cc(Cl)ccc4[n+]3[O-])cc21 (stereo not drawn) | 79

CCN(C(=O)CCl)C(C)(C)C(SSSC(c1ccc(Cl)cc1)C(C)(C)N(CC)C(=O)CCl)c1ccc(Cl)cc1 (stereo not drawn) yielded TGI of 31.5

"C=CC(=O)N1CCC([C@@H]2CCNc3c(C(N)=O)c(-c4ccc(Oc5ccccc5)cc4)nn32)CC1" yielded TGI of 16.7

CCCCCCCCCCCCCCCCOCC(COP(=O)([O-])OCC[n+]1ccc(N(C)C)cc1)OCC (stereo not drawn) yielded TGI of 33.8
